Before we begin, note that these pIC50 values for aldosterone synthase (CYP11B2) (Macaca fascicularis, UniProt A0A2K5UPL9) originate from several publications.
Scale note: pIC50 = -log10(concentration in M).

These solved cases illustrate the format of a correct answer.
OC1COCc2c(-c3ccc4cc[nH]c4c3)cncc21 (single isomer, unassigned) = 6.71
Cn1ncc2cc(F)c(-c3cncc4c3COCC4O)cc21 (single isomer, unassigned) = 7.70
CC1(C)Cc2ncn(-c3ccccc3)c2C(=O)O1 = 6.41
Cn1nnc2ccc(-c3cncc4c3COCC4O)cc21 (single isomer, unassigned) = 7.68

Provide only the value of recorded pIC50 for O=C1NCCc2cc(-c3cncc4c3COC3(CC3)C4O)ccc21 (single isomer, unassigned) 6.59

Specify reported pIC50 for the compound shown: OC1COCc2c(-c3ccc4nncn4c3)cncc21 (single isomer, unassigned) 5.64

Respond only with pIC50 recorded for CCC(=O)NC1COCc2c(-c3ccc4c(C)n[nH]c4c3)cncc21 (single isomer, unassigned) 6.86

Dear colleague, please send me the reported pIC50 for `CC1(C)CC(=O)c2c(noc2Cc2ccc(C(=O)N3CCCC3)cc2)C1` when you can. 7.49

====

Collected literature values of pIC50 measured for aldosterone synthase (CYP11B2) (Macaca fascicularis).
Convention used: pIC50 is expressed as -log10 of the molar concentration.

OC1COCc2c(-c3cnn(C4CC4)c3)cncc21 (single isomer, unassigned) = 6.52
CC1(C)CC(=O)c2c(noc2Cc2cccc(F)c2)C1 = 7.08
CN1C(=O)Cc2cc(-c3cncc4c3COCC4O)ccc21 (single isomer, unassigned) = 7.62
CC1(C)CC(=O)c2c(noc2Cc2cccc(C#N)c2)C1 = 6.85
OC1COCc2cncc(-c3ccc4cnccc4c3)c21 (single isomer, unassigned) = 6.81
N#Cc1ccc(-c2cncc3c2COCC3O)cc1 (single isomer, unassigned) = 7.38
CCS(=O)(=O)NC1COCc2c(-c3ccc4c(c3)CCC4=O)cncc21 (single isomer, unassigned) = 7.34
Cc1noc2ccc(-c3cncc4c3COC3(CC3)C4O)cc12 (single isomer, unassigned) = 7.73

Write down pIC50 measured for item CCS(=O)(=O)NC1COCc2c(-c3ccc4c(c3)C(O)CCO4)cncc21 (single isomer, unassigned) 5.00

Please give the documented pIC50 of O=C1CCc2cc(-c3cncc4c3COCC4O)ccc21 (single isomer, unassigned) 8.00

Look up and state reported pIC50 for OC1COCc2c(-c3ccc4c(Cl)n[nH]c4c3)cncc21 (single isomer, unassigned) 8.17

Could you please provide reported pIC50 for `NC(=O)c1ccc(Cc2onc3c2C(=O)CC2(CCC2)C3)cc1` ? Thanks! 7.92

Kindly indicate its recorded pIC50. Item: CN(C)C1COCc2c(-c3ccc4cnn(C)c4c3)cncc21 (single isomer, unassigned) 7.74

Fill in reported pIC50 for this entry: Cc1noc2ccc(-c3cncc4c3COCC4O)cc12 (single isomer, unassigned) 8.00

Give pIC50 for the following compound: OC1COCc2c(-c3ccccc3)cncc21 (single isomer, unassigned) 7.26

Consider the compound `O=C1OCCc2ncn(-c3ccc(Cl)c(Cl)c3)c21` and give its recorded pIC50. 7.85

====

# IC50 against aldosterone synthase (CYP11B2) (Macaca fascicularis), merged from multiple literature sources
Note: unit nM is implicit; provide only the numeric part.

Here are 3 compounds together with their reported answers.
O=C1OCCc2ncn(-c3ccc(Cl)cc3)c21 = 470
CN1CCc2cc(-c3cncc4c3COCC4O)ccc2C1=O (single isomer, unassigned) = 1010
CCC(=O)NC1COCc2c(-c3cc4c(cnn4C)cc3F)cncc21 (single isomer, unassigned) = 38

Pending compound:
Return reported IC50 for target or system aldosterone synthase (CYP11B2) (Macaca fascicularis), item `CC1(C)CC(=O)c2c(noc2Cc2ccc(C(=O)N3CCC[C@H](O)C3)cc2)C1` . 94

====

Listing of pIC50 toward aldosterone synthase (CYP11B2) (Macaca fascicularis, UniProt A0A2K5UPL9), each taken from a published source.
On this scale, pIC50 is minus log10 of a concentration expressed in M (mol/L).

Some compounds with known pIC50 results, for comparison:
CC1(CO)Cc2ncn(C3Cc4ccccc4C3)c2C(=O)O1 (centres unmarked) = 6.66
OC1c2cncc(-c3ccc4c(c3)COCCO4)c2COC12CC2 (single isomer, unassigned) = 7.39
CC1(C)CC(=O)c2c(noc2Cc2ccc(I)cc2)C1 = 7.54
CC1(C)CC(=O)c2c(noc2Cc2ccc3c(c2)NC(=O)CO3)C1 = 6.80
Cn1ncc2ccc(-c3cncc4c3C(C)(O)COC4)cc21 (single isomer, unassigned) = 7.41

System aldosterone synthase (CYP11B2) (Macaca fascicularis, UniProt A0A2K5UPL9). Read-out pIC50. Item OC1COCc2c(-c3ccc4c(c3)COCC4(F)F)cncc21 (single isomer, unassigned) . Report value. 7.66

Report pIC50 from aldosterone synthase (CYP11B2) (Macaca fascicularis, UniProt A0A2K5UPL9) testing of OC1COCc2c(-c3cc(Cl)c4cn[nH]c4c3)cncc21 (single isomer, unassigned) 6.62

====

The entries below pair compounds with pIC50 values for aldosterone synthase (CYP11B2) (Macaca fascicularis), as found in several publications.
The scale used: pIC50 is minus the common logarithm of the concentration in molar units.

Tell me its pIC50 on aldosterone synthase (CYP11B2) (Macaca fascicularis): OC1COCc2c(-c3ccc4c(c3)COCCO4)cncc21 (single isomer, unassigned) 7.10

Answer briefly: pIC50 recorded on aldosterone synthase (CYP11B2) (Macaca fascicularis) for `COc1ccc(Cc2onc3c2C(=O)CC(C)(C)C3)cc1C#N` 6.92

Given NC(=O)c1ccc(Cc2onc3c2C(=O)CC(CC2CC2)C3)cc1 (stereo not drawn) , report its pIC50 on aldosterone synthase (CYP11B2) (Macaca fascicularis). 7.68

For aldosterone synthase (CYP11B2) (Macaca fascicularis), give pIC50 of the listed compound: `O=C1OCCc2ncn(-c3ccc(F)c(F)c3)c21` 6.36

Send back aldosterone synthase (CYP11B2) (Macaca fascicularis) pIC50 of CC1(C)CC(=O)c2c(noc2Cc2ccc(OCCS(C)(=N)=O)cc2)C1 (stereo not drawn) only. 7.25

// fetch pIC50 for `CC1(C)CC(=O)c2c(noc2Cc2ccc(F)cc2)C1` ; system: aldosterone synthase (CYP11B2) (Macaca fascicularis) 6.72
